system: S1-M1-3.2 cells; details: S1-M1-3.2 cells, drug 5 μM alone, 3 days
measure.name: Per Cent Survival Alone (Per Cent)

> print(dat)
                                   molecule             measure.name  units.of.measure  val
1  COc1ccc2c3c4n(c2c1)[C@@H](C=C(C)C)OOC(C)(C)C[C@@H]4N1C(=O)[C@@H]2CCCN2C(=O)[C@]1(O)[C@H]3OCC=C(C)C  Per Cent Survival Alone          Per Cent   96
2  COc1ccc2c3c(n(CC=C(C)C)c2c1)[C@H](C=C(C)C)N1C(=O)[C@@H]2CCCN2C(=O)[C@]1(O)[C@H]3O  Per Cent Survival Alone          Per Cent   90
3  COc1ccc2c3c([nH]c2c1)[C@H](C=C(C)C)N1C(=O)[C@@H]2CCCN2C(=O)[C@@H]1C3  Per Cent Survival Alone          Per Cent   99
4  COc1ccc(CCN(C)CCCC(C#N)(c2ccc(OC)c(OC)c2)C(C)C)cc1OC (centres unmarked) [Verapamil, reference compound]  Per Cent Survival Alone          Per Cent   98
5  COc1ccc(C(C#N)(CCCCCN2CCc3cc(OC)c(OC)cc3C2)Sc2ccc(C)cc2)cc1OC (centres unmarked) [reference compound]  Per Cent Survival Alone          Per Cent   78

---

tested on: S1-M1-3.2 cells; assay: Cytotoxicity of antitumor agents, 3-day SRB assay, mitoxantrone-selected cells; type: cell-based, human; conditions: relative to S1; 2-7 independent experiments
measure.name: S1-M1-3.2 (relative resistance)

molecule	val
O=C1c2c(O)ccc(O)c2C(=O)c2c(NCCNCCO)ccc(NCCNCCO)c21	1435
COc1cc([C@@H]2c3cc4c(cc3[C@@H](O[C@@H]3O[C@@H]5CO[C@@H](c6cccs6)O[C@H]5[C@H](O)[C@H]3O)[C@H]3COC(=O)[C@H]23)OCO4)cc(OC)c1O [VM-26, teniposide]	18
COc1cc(NS(C)(=O)=O)ccc1Nc1c2ccccc2nc2ccccc12	11
CC[C@@]1(O)C(=O)OCc2c1cc1n(c2=O)Cc2cc3c(CN(C)C)c(O)ccc3nc2-1 [topotecan, reference compound]	41
C(=N\NC1=NCCN1)/c1c2ccccc2c(/C=N/NC2=NCCN2)c2ccccc12	24
CC[C@@]1(O)C(=O)OCc2c1cc1n(c2=O)Cc2cc3ccccc3nc2-1	2
CC(=O)O[C@H]1C(=O)[C@@]2(C)[C@H]([C@H](OC(=O)c3ccccc3)[C@]3(O)C[C@H](OC(=O)[C@H](O)[C@@H](NC(=O)c4ccccc4)c4ccccc4)C(C)=C1C3(C)C)[C@]1(OC(C)=O)CO[C@@H]1C[C@@H]2O [paclitaxel, reference compound]	6
COc1cc([C@@H]2c3cc4c(cc3[C@@H](O[C@@H]3O[C@@H]5CO[C@@H](C)O[C@H]5[C@H](O)[C@H]3O)[C@H]3COC(=O)[C@H]23)OCO4)cc(OC)c1O [etoposide]	6
CC[C@]1(O)C[C@@H]2CN(CCc3c([nH]c4ccccc34)[C@@](C(=O)OC)(c3cc4c(cc3OC)N(C)[C@H]3[C@@](O)(C(=O)OC)[C@H](OC(C)=O)[C@]5(CC)C=CCN6CC[C@]43[C@@H]65)C2)C1	3

---

Reported Per Cent Survival with 3.2 μM mitoxantrone by item:
system: S1-M1-3.2 cells; details: S1-M1-3.2 cells, drug 80 μM
measure.name: Per Cent Survival with 3.2 μM mitoxantrone (Per Cent)

> print(dat)
                                   compound  target.under.test  units.of.measure  val
1  COc1ccc2c3c([nH]c2c1)[C@H](C=C(C)C)N1C(=O)[C@@H]2CCCN2C(=O)[C@@H]1C3    S1-M1-3.2 cells          Per Cent   13
2  COc1ccc(CCN(C)CCCC(C#N)(c2ccc(OC)c(OC)c2)C(C)C)cc1OC (centres unmarked) [Verapamil, reference compound]    S1-M1-3.2 cells          Per Cent   58
3  COc1ccc2c3c4n(c2c1)[C@@H](C=C(C)C)OOC(C)(C)C[C@@H]4N1C(=O)[C@@H]2CCCN2C(=O)[C@]1(O)[C@H]3OCC=C(C)C    S1-M1-3.2 cells          Per Cent   34
4  COc1ccc2c3c(n(CC=C(C)C)c2c1)[C@H](C=C(C)C)N1C(=O)[C@@H]2CCCN2C(=O)[C@]1(O)[C@H]3O    S1-M1-3.2 cells          Per Cent   10
5  COc1ccc(C(C#N)(CCCCCN2CCc3cc(OC)c(OC)cc3C2)Sc2ccc(C)cc2)cc1OC (centres unmarked) [reference compound]    S1-M1-3.2 cells          Per Cent   13

---

tested on: S1-M1-3.2 cells; conditions: compound alone; concentration that causes greater than 20% cell death of S1-M1-3.2 cells
Here, each record is paired with measured Toxicity (>20%) data.
measure.name: Toxicity (>20%)

> print(dat)
                                    compound     measure.name       val
 1  CC(C)C[C@H]1c2[nH]c3ccccc3c2C[C@H]2C(=O)N3CC[C@H]3C(=O)N21 [Example 22b]  Toxicity (>20%)  >80.0 µM
 2  COc1ccc2c3c([nH]c2c1)[C@H](C=C(C)C)N1C(=O)[C@@H]2CCCN2C(=O)[C@@H]1C3  Toxicity (>20%)  >80.0 µM
 3  COc1ccc2c3c4n(c2c1)[C@@H](C=C(C)C)OOC(C)(C)C[C@@H]4N1C(=O)[C@@H]2CCCN2C(=O)[C@]1(O)[C@H]3OCC=C(C)C  Toxicity (>20%)   15.0 µM
 4  CC(C)C[C@@H]1c2[nH]c3ccccc3c2C[C@H]2C(=O)N3CCC[C@@H]3C(=O)N12 [Example 16a]  Toxicity (>20%)  >80.0 µM
 5  O=C1[C@@H]2Cc3c([nH]c4ccccc34)[C@@H](CCCCCc3ccccc3)N2C(=O)[C@@H]2CCCN12 [Example 23a]  Toxicity (>20%)    7.5 µM
 6  CC(C)C[C@@H]1c2[nH]c3ccccc3c2C[C@H]2C(=O)N3CCC[C@H]3C(=O)N12 [Example 14a]  Toxicity (>20%)   80.0 µM
 7  CC(C)CC1c2[nH]c3ccccc3c2CC2C(=O)N3CCCCC3C(=O)N21 (stereo not shown) [Example 20a]  Toxicity (>20%)   80.0 µM
 8  O=C(NCCC[C@H]1c2[nH]c3ccccc3c2C[C@H]2C(=O)N3CCC[C@H]3C(=O)N21)[C@@H]1CCCN1  Toxicity (>20%)    >80 µM
 9  CC(C)CC1c2[nH]c3ccccc3c2CC2C(=O)N3CCCCC3C(=O)N21 (stereo not shown) [Example 19b]  Toxicity (>20%)  >80.0 µM
10  O=C1[C@@H]2Cc3c([nH]c4ccccc34)[C@H](CCCCCc3ccccc3)N2C(=O)[C@@H]2CCCN12 [Example 23b]  Toxicity (>20%)    >80 µM
11  CC(C)=C[C@H]1c2[nH]c3ccccc3c2C[C@H]2C(=O)N3CCC[C@H]3C(=O)N21  Toxicity (>20%)    >80 µM
12  CC(C)CC1c2[nH]c3ccccc3c2CC2C(=O)N3CCCCC3C(=O)N21 (stereo not shown) [Example 20b]  Toxicity (>20%)   50.0 µM
13  NCCC[C@@H]1c2[nH]c3ccccc3c2C[C@H]2C(=O)N3CCC[C@H]3C(=O)N12 [Example 29a]  Toxicity (>20%)    >80 µM

---

system: S1-M1-3.2 cells; details: S1-M1-3.2 cells, drug 40 μM
Label 1.0 when Per Cent Survival with 3.2 μM mitoxantrone is strictly below 20 Per Cent; at or above that, label 0.0.

> print(dat)
                                   compound  discrete.label
1  COc1ccc2c3c4n(c2c1)[C@@H](C=C(C)C)OOC(C)(C)C[C@@H]4N1C(=O)[C@@H]2CCCN2C(=O)[C@]1(O)[C@H]3OCC=C(C)C             0.0
2  COc1ccc(CCN(C)CCCC(C#N)(c2ccc(OC)c(OC)c2)C(C)C)cc1OC (centres unmarked) [Verapamil, reference compound]             0.0
3  COc1ccc2c3c([nH]c2c1)[C@H](C=C(C)C)N1C(=O)[C@@H]2CCCN2C(=O)[C@@H]1C3             1.0
4  COc1ccc(C(C#N)(CCCCCN2CCc3cc(OC)c(OC)cc3C2)Sc2ccc(C)cc2)cc1OC (centres unmarked) [reference compound]             1.0

---

system: S1-M1-3.2 cells; details: S1-M1-3.2 cells, drug 80 μM alone, 3 days
measure.name: Per Cent Survival Alone (Per Cent)

> print(dat)
                                   compound             measure.name  val
1  COc1ccc2c3c4n(c2c1)[C@@H](C=C(C)C)OOC(C)(C)C[C@@H]4N1C(=O)[C@@H]2CCCN2C(=O)[C@]1(O)[C@H]3OCC=C(C)C [Fumitremorgin A]  Per Cent Survival Alone   41
2  COc1ccc(CCN(C)CCCC(C#N)(c2ccc(OC)c(OC)c2)C(C)C)cc1OC (centres unmarked) [Verapamil, reference compound]  Per Cent Survival Alone   80
3  COc1ccc2c3c(n(CC=C(C)C)c2c1)[C@H](C=C(C)C)N1C(=O)[C@@H]2CCCN2C(=O)[C@]1(O)[C@H]3O [Fumitremorgin B]  Per Cent Survival Alone   16
4  COc1ccc(C(C#N)(CCCCCN2CCc3cc(OC)c(OC)cc3C2)Sc2ccc(C)cc2)cc1OC (centres unmarked) [reference compound]  Per Cent Survival Alone   13
5  COc1ccc2c3c([nH]c2c1)[C@H](C=C(C)C)N1C(=O)[C@@H]2CCCN2C(=O)[C@@H]1C3 [Fumitremorgin C]  Per Cent Survival Alone   94
